The values you see were collected from PubChem BioAssay AID1159580.

assay: chemical genetic growth profiling, strain panel (AID 1159580);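 also: tested at 20 µM; growth read once vehicle control cultures reached saturation at 30 °C; 1 = growth at the plate median or of vehicle wells; lower values mean less growth of the strain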; conditions: S. cerevisiae deletion strains, growth OD, locus YDL040C, strain nat1
In all, about 5,500 compounds went through this assay and about 2,000 (36%) were called active. Roughly 18% stayed inconclusive and do not appear here. Rule as the data show it: active = normalized growth mostly below about 0.91 (no sharp cut-off); inconclusive = no clear call, values can overlap the other calls; inactive = mostly above about 0.92. Some of the results follow. Where a SMILES comes first, the peptide text is derived from it. Side-chain parts run from the residue outwards. [ ]: non-standard residue; d: D form. The star is where a group is joined. X1 = CCC(C)C(N)C1=NC(C(=O)*)CS1; Orn = NCCC[CH](N)C(=O)O
Pick one and only one: 1 = active, -1 = inactive

Test call, this molecule: `CC(=O)OC[C@H]1O[C@@H](Oc2cc(OC(C)=O)c3c(=O)cc(-c4ccc(OC(C)=O)cc4)oc3c2)[C@H](OC(C)=O)[C@@H](OC(C)=O)[C@@H]1OC(C)=O`
-1

Now this one: CC(=O)OC1CCC2(C)C3CC(=O)C4(C)C(CC5OC6(CCC(C)CO6)[C@@H](C)C54)C3CC[C@H]2C1 (some centres not stated)
-1

Same again, this time with `COc1ccc([C@H]2COc3c(ccc(O)c3OC)C2)c(OC)c1O`
-1

Moving on to `NC[C@H]1O[C@H](O[C@H]2[C@H](O)[C@@H](O[C@H]3O[C@H](CO)[C@@H](O)[C@H](N)[C@H]3O)[C@H](N)C[C@@H]2N)[C@H](N)C[C@@H]1O`
-1

Another molecule: CC(=O)O[C@H]1CC[C@]2(C)C3CC(=O)[C@]4(C)C(C(C)=O)=CCC4C3CC[C@H]2C1 (some centres not stated)
-1

And what about the molecule `O=C(CCc1ccc(O)cc1)c1c(O)cc(O)cc1O[C@@H]1O[C@H](CO)[C@@H](O)[C@H](O)[C@H]1O` ?
-1

Also check `NCCc1cc(O)c(O)cc1O`
-1

OC(c1cc(C(F)(F)F)nc2c(C(F)(F)F)cccc12)C1CCCCN1 (configuration not stated) , same question.
-1

And what about the molecule `CC(=O)[O][Hg][c]1ccccc1` ?
1

Now consider `c1ccc([C@H]2CN3CCSC3=N2)cc1` .
-1

Try this molecule too: NC[C@H]1O[C@H](O[C@H]2C(O[C@@H]3O[C@H](CO)[C@@H](O)[C@H]3O)[C@@H](O)[C@H](N)C[C@@H]2N)[C@H](N)[C@@H](O)[C@@H]1O (some centres not stated)
-1

Follow-up entry: `NCCNCCNCCN`
-1

Consider next the molecule CC(=O)O[C@H]1CC[C@]2(C)C3CC[C@@]4(C)C(CC5O[C@@]6(CCC(C)CO6)[C@@H](C)C54)C3CC[C@@H]2C1 (some centres not stated) in the same way.
-1

Repeat with CC(=O)[C@@]1(O)CCC2C3CCC4=CC(=O)CC[C@]4(C)C3CC[C@@]21C (some centres not stated)
-1

Also need `COc1cc(-c2coc3cc(O[C@@H]4O[C@H](CO)[C@@H](O)[C@H](O)[C@H]4O)c(OC)c(O)c3c2=O)cc(O)c1OC` , thanks.
-1

What do you get for CCC(C)C(N)C1=NC(C(=O)NC(CC(C)C)C(=O)NC(CCC(=O)O)C(=O)NC(C(=O)NCCCCC2NC(=O)C(CC(N)=O)NC(=O)C(CC(=O)O)NC(=O)C(Cc3cnc[nH]3)NC(=O)C(Cc3ccccc3)NC(=O)C(C(C)CC)NC(=O)C(CCCN)NC2=O)C(C)CC)CS1 (stereo not drawn) (cyclo(DNK([Ile-Glu-Leu-X1])[Orn]IFH); configuration not given here) ?
-1

// repeat for CC(=O)O[C@@H]1CC[C@]2(C)C3CC[C@]4(C)C(=O)CCC4C3CC[C@H]2C1 (some centres not stated) and report
-1
